Each entry below carries its recorded IC50.
- Tested on: Trypanosoma cruzi
- RUN DESCRIPTION: GSK_TCAKS: pIC50 Trypanosoma cruzi viability assay using beta-GAL activity. This assay was run at single shot at 5uM compound concentration per well. The biological reagents consisted of NIH-3T3 host cells and trypomastigotes parasitic cells; both cell types were set to a 3.3 * 10^5 cells/mL dilution in assay DMEM by means of a CASY cell counter device using a 60um capillary. 6 uL of the mixture were dispensed per well (about 1 * 10^3 host-cells and 1 * 10^3 parasites) with a Multidrop Combi dispenser. […] In all wells, the percentage of DMSO never exceeded 0.5%. Plates incubated for four days at 37C, 5% CO2. The substrate used for the assay fluorescence intensity (FLINT) readout was resorufin-beta-D-galactopiranoside (Sigma-Aldrich) at 5uM per well. It was diluted in PBS supplemented with the soft detergent Igepal (Fluka).
- Type: functional, organism-based, Mus musculus
- CONDITION NOTES: Tulahuen, NIH3T3
Numeric answer only, unit nM assumed.

Example cases with answers are listed next.
* CCc1ccccc1[C@@H](C)NC(=O)c1cnc2c(cnn2CC)c1NC1CCN(C(N)=O)CC1 | 25100
* Cn1nc([N+](=O)[O-])nc1Oc1ccc(C(=O)c2ccccc2)cc1 | 251

Let us move to another entry and its IC50.
Return reported IC50; argument: Fc1ccccc1N1C[C@H]2CCN(c3cccnc3)C[C@H]2C1
200

---

- System: Trypanosoma cruzi
- RUN DESCRIPTION: GSK_TCAKS: pIC50 Trypanosoma cruzi viability assay using beta-GAL activity. This assay was run at single shot at 5uM compound concentration per well. The biological reagents consisted of NIH-3T3 host cells and trypomastigotes parasitic cells; both cell types were set to a 3.3 * 10^5 cells/mL dilution in assay DMEM by means of a CASY cell counter device using a 60um capillary. 6 uL of the mixture were dispensed per well (about 1 * 10^3 host-cells and 1 * 10^3 parasites) with a Multidrop Combi dispenser. […] In all wells, the percentage of DMSO never exceeded 0.5%. Plates incubated for four days at 37C, 5% CO2. The substrate used for the assay fluorescence intensity (FLINT) readout was resorufin-beta-D-galactopiranoside (Sigma-Aldrich) at 5uM per well. It was diluted in PBS supplemented with the soft detergent Igepal (Fluka).
- Format: functional, organism-based, Mus musculus
- CONDITION NOTES: Tulahuen, NIH3T3
PARAMETER: pIC50
Please note pIC50 is a logarithmic value: minus log10 of concentration in mol/L. Answer with that number alone.

* COc1ccc2ncc(=O)n(CCN3CCOC(CNCc4ccc(C(F)(F)F)cc4F)C3)c2n1 (stereo not given) | 6.40

Item: CN(C)Cc1ccc(N2CCC(NS(=O)(=O)c3ccc(Cl)cc3)CC2)cc1 Test system: Trypanosoma cruzi Read-out: pIC50 Value: ?
6.10

Item: COc1ccccc1C1CC(c2ccc(NS(C)(=O)=O)cc2)=NN1C(=O)c1cccs1 (stereo not given) Test system: Trypanosoma cruzi Read-out: pIC50 Value: ?
4.60

Item: O=C1NCCn2ccc(Nc3nc(N[C@H]4CC[C@H](O)CC4)ncc3Cl)c21 Test system: Trypanosoma cruzi Read-out: pIC50 Value: ?
5.20

Item: CC(Cn1ccnc1)NC(=O)C=Cc1ccc(Cl)cc1 (stereo not given) Test system: Trypanosoma cruzi Read-out: pIC50 Value: ?
6.40

Item: COCCn1c(-c2ccc3c(c2)OCO3)cnc1NCc1ccccc1OC Test system: Trypanosoma cruzi Read-out: pIC50 Value: ?
5.10

---

- System: Leishmania donovani
- RUN DESCRIPTION: GSK_TCAKS: pIC50 Leishmania donovani Imaging: Infected Macrophages. Assay plates (384-well) were prepared by adding 250nL of compound to each well. For single shot assay, the final compound concentration was 5 uM. […] Automated image analysis was performed with a script developed on Acapella High Content Imaging and Analysis Software (PerkinElmer). Output: Percent of infected macrophage cells were reported for each well.
- Assay type: functional, organism-based, Homo sapiens
- CONDITION NOTES: THP-1
pIC50: −log10 of the molar value.
Please mark 1 (yes) if the recorded pIC50 is equal to or greater than 5, and 0 (no) if it falls below.

Consider the worked cases shown below.
- CC(c1ccccn1)N(C)Cc1nc2ccccc2n1C(C)C (stereo not given): 1 (yes)
- CNc1cc(C)nc(C2CN(C(=O)c3n[nH]c4ccccc34)CCO2)c1 (stereo not given): 0 (no)

# check: pIC50 of O=C(NCC(c1cccnc1)N1CCc2ccccc2C1)C(=O)Nc1cccc(Cl)c1 (stereo not given) is greater than or equal to 5
0 (no)

# check: pIC50 of CN(C)CCN(C)Cc1ccc(Cl)cc1NS(=O)(=O)c1ccc(Cl)c(Cl)c1 is greater than or equal to 5
1 (yes)

# check: pIC50 of CCN(CC)S(=O)(=O)c1ccc(C(=O)Nc2cc(C)nn2-c2nc(C)c(C)c(=O)[nH]2)cc1 is greater than or equal to 5
0 (no)

# check: pIC50 of c1ccc(-c2nc(NC3CCCCC3)cc(C3CC3)n2)nc1 is greater than or equal to 5
1 (yes)

# check: pIC50 of Cc1ccccc1NS(=O)(=O)c1ccc2[nH]cc(C(=O)NC3CCCC3)c(=O)c2c1 is greater than or equal to 5
0 (no)

# check: pIC50 of COCCn1cnc2cc(NC(=O)C3CCCCC3)cc(C(=O)N3CCc4sccc4C3)c21 is greater than or equal to 5
0 (no)

# check: pIC50 of Cc1c([N+](=O)[O-])c(C(=O)Nc2sc3c(c2C#N)CCC(C)C3)nn1C (stereo not given) is greater than or equal to 5
0 (no)

# check: pIC50 of CC1(Oc2cncc(Cl)c2)CCN(Cc2cc3ccccc3[nH]2)C1 (stereo not given) is greater than or equal to 5
0 (no)

---

- Test system: Trypanosoma cruzi
- RUN DESCRIPTION: GSK_TCAKS: pIC50 Trypanosoma cruzi Imaging: Amastigotes/Cell. […] Cells were then washed once with PBS before infection. T. cruzi trypomastigotes, collected at days 5 to 8 after infection from LLC-MK2 parasite infected cultures, were allowed to swim out for 4h at 37C from a centrifuged pellet (2,500 rpm/10 min/room temperature). Trypomastigotes were then collected and counted in a CASY Cell Counter. Trypomastigotes, in supplemented DMEM, were added to H9c2 cultures in a multiplicity of infection of 1 and incubated for 18 h. Cells were washed once with PBS before incubation of the infected H9c2 monolayer with trypsin (Life-Technologies) to detach cells from the flask. Cells were counted in a CASY Cell Counter using a 150 um capillary and their density set at 5 * 10^4 cells per mL in supplemented assay DMEM. Infected H9c2 were dispensed into 384-well poly-lysine coated assay plates at 50uL per well using a Multidrop Combi dispenser. After seeding them, the plates were incubated at 37C, 5% CO2 for 72h. Cultures were then fixed and stained by addition of 50 uL of a solution containing 8% formaldehyde and 4 uM DRAQ5 DNA dye (BioStatus, UK) per well. […] Five images were collected per well for reliable statistical analysis. Automated image analysis was performed with a script developed on Acapella High Content Imaging and Analysis Software (PerkinElmer). Output: number of amastigotes per cell as infection level measurement.
- Type: functional, organism-based, Rattus norvegicus
- CONDITION NOTES: H9c2, 4 h
PARAMETER: pIC50
Please note pIC50 is a logarithmic value: minus log10 of concentration in mol/L. Answer with that number alone.

* Cc1ccc2c(c1)SC(C(=O)Nc1nnc(-c3ccccn3)[nH]1)C2 (centres undefined) | 5.20
* COc1ccc2ncc(Cl)c(CCN3CC[C@@H](NCc4cc5c(cn4)OCS5)[C@H](O)C3)c2n1 | 7.20
* Cc1c([N+](=O)[O-])c(C(=O)Nc2sc3c(c2C#N)CCC(C)C3)nn1C (centres undefined) | 5.80
* COc1cccc(C(=O)[C@H]2C[C@@H]2CN(Cc2cccnc2)Cc2cccnc2)c1 | 7.30
* CCc1cccc(CC)c1-n1c(SCC(=O)N2CC(=O)Nc3ccccc32)nnc1-c1cccnc1 | 4.60

Return reported pIC50; argument: COc1ccc(S(=O)(=O)Nc2ccc(C(=O)Nc3nc(-c4ccccn4)cs3)cc2)cc1
6.20

Return reported pIC50; argument: Cc1ccccc1NS(=O)(=O)c1ccc2[nH]cc(C(=O)NC3CCCC3)c(=O)c2c1
4.60

---

Each entry below carries its recorded IC50 at 48 h.
- RUN DESCRIPTION: GSK_TCAKS: pIC50 HepG2 human cell line viability assay using luminiscence. […] Seeding density was checked to ensure that new mono-layers were not more than 50% confluent at the time of harvesting. Cell suspension was added to 500 mL of the same medium at a final density of 1.2 * 10^5 cells/mL. This cell suspension was dispensed (25 uL, 3000 cells per well) into 384-well clear-bottom plates using a Multidrop Combi dispenser. Prior to addition of the cell suspension, the screening compounds (250 nL) were pre-dispensed into the plates with an Echo liquid handler. Plates were incubated for 48 h at 37C, 5% CO2. After incubation, plates equilibrated at room temperature for 30 min before proceeding to develop the luminescent signal. The signal developer, CellTiter-Glo Reagent, was allowed to equilibrate at room temperature for 30 min and added to the plates (25uL per well) using a Multidrop Combi dispenser. Plates were left for 10 min at room temperature for stabilization and then read using a ViewLux.
- Type: toxicity, cell-based

* CC(Cn1ccnc1)NC(=O)C1CC1c1cccc(Cl)c1Cl (stereo not given) | > 100 µM

Return reported IC50 at 48 h; argument: O=C(Nc1ccc(C(F)(F)F)cc1)NC1(C(=O)NCc2ccco2)CCCCC1
> 100 µM

Return reported IC50 at 48 h; argument: O=C(CN1CCC2(O)CCCCC2C1c1ccc2c(c1)OCO2)Nc1ccc(Cl)cc1Cl (stereo not given)
> 100 µM

Return reported IC50 at 48 h; argument: Cc1ccccc1NS(=O)(=O)c1ccc2[nH]cc(C(=O)NC3CCCCC3)c(=O)c2c1
31.6 µM

Return reported IC50 at 48 h; argument: O=C(Nc1ccccc1)Nc1nc(-c2ccccn2)cs1
25.1 µM

Return reported IC50 at 48 h; argument: Cc1ccc(NC(=O)c2ccc(Cl)c(NC(=O)c3ccc([N+](=O)[O-])cc3)c2)cc1
> 100 µM

Return reported IC50 at 48 h; argument: Cc1c(C(C)NC(=O)Nc2cccc(Cl)c2)sc2ncnn12 (stereo not given)
> 100 µM

Return reported IC50 at 48 h; argument: COc1ccc(C(=O)Nc2ccc(NC(=O)CO)cc2)cc1
> 100 µM

Return reported IC50 at 48 h; argument: CN1CCC(N(C)c2nccc(N3CCN(C(=O)c4cccc(-c5cccnc5)c4)CC3)n2)CC1
39.8 µM

Return reported IC50 at 48 h; argument: CCN(Cc1cccs1)C(=O)CSc1nnc(-c2ccc3c(c2)OCO3)o1
> 100 µM
